Reported values of fraction ligated for individual entries
B1: minF1; the commonest letter at each place (parent)
chain: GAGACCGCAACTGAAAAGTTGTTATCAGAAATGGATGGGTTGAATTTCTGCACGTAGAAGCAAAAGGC

# Variants of: B1
# MEASUREMENT_DESCRIPTION: fraction ligated after 30 min (ligated reads / total reads); higher = more ligase activity
# ASSAY_CONTEXT: with F1*subA RNA substrate (template-directed ligation), 42 °C
Answer with the value's number alone.

Worked set:
G34C A43T	0.0056
T25A T36A	0.00698

stdin: I'd like to know its fraction ligated. The variant in question is C26G T32C
stdout: 0.00208

stdin: Which fraction ligated value is on record for G33A T36A ?
stdout: 0.0257

stdin: Look up fraction ligated: G42T A43G A44T
stdout: 0.00254

stdin: Would you mind telling me what fraction ligated value was observed for A27G T36C ?
stdout: 0.0221

stdin: Please give the measured fraction ligated for this variant: T23C A30G
stdout: 0.391

stdin: Quick one: fraction ligated of T25A A44C ?
stdout: 0.00273

stdin: Look at this variant and give its reported fraction ligated. T23A T25A
stdout: 0.00503

stdin: Field request: fraction ligated | item: T25G T36G
stdout: 0.0257

stdin: Record request: fraction ligated value, item T23A T25G
stdout: 0.00615
